Give IC50 for every item shown.
target: Epidermal growth factor receptor (Homo sapiens, UniProt P00533, D770-N771INSSVD); test: Inhibition of EGFR D770_N771insSVD mutant (unknown origin) expressed in human NCI-H2073 cells preincubated for 2 hrs followed by EGF stimulation for 10 mins by HTRF assay; assay type: cell-based
Sequence (P00533 whole entry, looked up, stated change not applied): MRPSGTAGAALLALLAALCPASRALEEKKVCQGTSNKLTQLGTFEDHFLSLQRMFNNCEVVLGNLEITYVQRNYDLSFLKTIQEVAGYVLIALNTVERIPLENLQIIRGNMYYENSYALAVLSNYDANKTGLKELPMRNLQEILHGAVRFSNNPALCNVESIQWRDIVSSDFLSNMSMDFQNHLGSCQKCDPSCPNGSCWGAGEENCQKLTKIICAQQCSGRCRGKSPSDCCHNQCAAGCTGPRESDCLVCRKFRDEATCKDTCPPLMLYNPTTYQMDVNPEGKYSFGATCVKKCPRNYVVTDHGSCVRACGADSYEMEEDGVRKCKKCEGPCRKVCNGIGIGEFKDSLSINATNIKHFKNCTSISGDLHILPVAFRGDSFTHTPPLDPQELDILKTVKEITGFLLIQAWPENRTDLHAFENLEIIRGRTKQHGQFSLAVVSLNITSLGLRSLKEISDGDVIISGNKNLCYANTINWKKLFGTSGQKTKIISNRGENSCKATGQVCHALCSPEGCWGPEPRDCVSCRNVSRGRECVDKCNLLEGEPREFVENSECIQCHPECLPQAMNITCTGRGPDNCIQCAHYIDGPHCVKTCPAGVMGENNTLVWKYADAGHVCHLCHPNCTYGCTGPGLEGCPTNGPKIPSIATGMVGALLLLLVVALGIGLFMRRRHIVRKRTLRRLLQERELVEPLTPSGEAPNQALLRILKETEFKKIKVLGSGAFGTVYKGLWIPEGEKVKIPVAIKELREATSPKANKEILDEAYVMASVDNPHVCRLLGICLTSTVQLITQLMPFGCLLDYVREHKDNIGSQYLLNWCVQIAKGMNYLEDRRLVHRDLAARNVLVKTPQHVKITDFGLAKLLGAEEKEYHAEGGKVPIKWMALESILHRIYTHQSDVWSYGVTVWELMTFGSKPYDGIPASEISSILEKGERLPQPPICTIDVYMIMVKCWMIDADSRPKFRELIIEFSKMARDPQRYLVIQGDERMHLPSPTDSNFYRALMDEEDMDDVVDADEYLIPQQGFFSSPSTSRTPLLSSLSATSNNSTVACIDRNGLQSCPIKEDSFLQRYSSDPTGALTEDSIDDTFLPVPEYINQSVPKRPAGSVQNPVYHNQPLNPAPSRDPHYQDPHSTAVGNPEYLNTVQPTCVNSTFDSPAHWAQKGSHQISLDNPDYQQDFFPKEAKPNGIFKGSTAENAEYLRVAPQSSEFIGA
# unit: nM | format: bare number

**Query** Recorded IC50 for `C=CC(=O)Nc1cc(Nc2ncc(C(=O)OC(C)C)c(-c3cn(C)c4ccccc34)n2)c(OC)cc1N(C)CCN(C)C` , please?
**Result** 31.6

**Query** Could you tell me which IC50 is on file for `C=CC(=O)N[C@H]1C=C(C)c2c(-c3cnc4ccccc4c3)c3c(N)ncnc3n2C1` ?
**Result** 20

**Query** Please report the recorded IC50 for `C=CC(=O)Nc1cc(Nc2nccc(Nc3cc(Cl)c(F)cc3C(C)(C)O)n2)c(OC)cc1N1CC[C@@H](N(C)C)C1` .
**Result** 50.1

---

experiment: Lipophilicity, log D of compound in octanol/water at pH 7.4 by shake flask method; assay type: physicochemical
endpoint: logD
Keep the answer to the number alone.

**Query** Please look up its logD: `C=CC(=O)N1Cc2nc(-c3ccc(F)c(Oc4cccc(F)n4)c3)n(-c3ccncc3)c2C1`
**Result** 2.5

---

molecular target: Epidermal growth factor receptor (Homo sapiens, UniProt P00533, D770-N771INSNPG); test: Inhibition of EGFR D770_N771insNPG mutant (unknown origin) by HTRF assay
Sequence (P00533 whole entry, looked up, stated change not applied): as above
Please go through the items and note down their IC50.
# number only, unit nM dropped from output

**Query** Any idea what IC50 came out for `C=CC(=O)Nc1cc(Nc2nccc(Nc3cc(Cl)c(F)cc3C(C)(C)O)n2)c(OC)cc1N1CC[C@@H](N(C)C)C1` on Epidermal growth factor receptor (Homo sapiens, UniProt P00533, D770-N771INSNPG)?
**Result** 25.1

**Query** Item: `C=CC(=O)Nc1cc(Nc2ncc(C(=O)OC(C)C)c(-c3cn(C)c4ccccc34)n2)c(OC)cc1N(C)CCN(C)C` Test system: Epidermal growth factor receptor (Homo sapiens, UniProt P00533, D770-N771INSNPG) Read-out: IC50 Value: ?
**Result** 7.94

**Query** Item `C=CC(=O)N[C@H]1C=C(C)c2c(-c3cnc4ccccc4c3)c3c(N)ncnc3n2C1` with Epidermal growth factor receptor (Homo sapiens, UniProt P00533, D770-N771INSNPG) - IC50?
**Result** 5.01

---

I'd be grateful if you could share measured IC50 for these entries.
target: Epidermal growth factor receptor (Homo sapiens, UniProt P00533, D770-N771INSSVD); assay: Inhibition of EGFR D770_N771insSVD mutant (unknown origin) expressed in human NCI-H2073 cells by ELISA; assay type: cell-based
Quick note: give the figure in nM, leave out the unit.

**Query** Find the recorded IC50 belonging to C=CC(=O)N[C@H]1C=C(C)c2c(-c3cnc4ccccc4c3)c3c(N)ncnc3n2C1 [CLN-081] and report it.
**Result** 63.1

**Query** Given the molecule C=CC(=O)Nc1cc(Nc2ncc(C(=O)OC(C)C)c(-c3cn(C)c4ccccc34)n2)c(OC)cc1N(C)CCN(C)C [MOBOCERTINIB] , what is its reported IC50?
**Result** 20

**Query** Sample C=CC(=O)Nc1cc(Nc2nccc(Nc3cc(Cl)c(F)cc3C(C)(C)O)n2)c(OC)cc1N1CC[C@@H](N(C)C)C1 [SUNVOZERTINIB] — what was its IC50?
**Result** 20
